B1: library; a variant is named by its letters at N, in order (parent)
chain: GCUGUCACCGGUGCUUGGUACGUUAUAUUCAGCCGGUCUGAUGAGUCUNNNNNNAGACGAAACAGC

- Variants of: B1
- measurementDescription: normalized RNA/DNA level without ligand (relative to sTRSVctl = 100) (log10 (% of sTRSVctl)); HEK293T overexpressing SLC46A1; higher = less ribozyme self-cleavage, higher mRNA level
- testParameters: without (6R,S)-folinic acid; ligand present: no
The threshold is inclusive: normalized RNA/DNA level without ligand (log10) of exactly 2 counts as t; values below receive f.

change: UCUACG
answerLabel: f

change: AGCUCA
answerLabel: t

change: CGACUC
answerLabel: t

change: CUCGUU
answerLabel: t

change: UUAUGA
answerLabel: f

change: UAAGGA
answerLabel: f

change: ACUUAG
answerLabel: f

change: ACUGAG
answerLabel: f

change: AGUAUC
answerLabel: t
